test: yeast display, Sf9 membrane polyspecificity reagent, FACS + sequencing; frameworks hold sequencing errors
Quantity name: polyreactivity (PSR sort gate)

QVQLVESGGGLVQAGGSLRLICAASGRTFDRYDMGWYRPAPGKERALVATISSSGGSTYYADSVKGRFTISRDNAKNTVYLQMNSLKPEDTAVYYCAADPSGYYWGQGSQVTVSS : low polyreactivity
QDLLVESGGGLVQAGGRLRLSCAASGSTFRYYAMGWYRQAPGKERELVAAITNSCGSTNYADSVKGRFTISRDNAKNTVYLQMNSLKPEDTAVYYCNANTWRYFTMGYWGHGTQVTVSS : high polyreactivity
QVQLVESGGGLVQAGGSLRLSCAASGRTFTFNTMGWYRQAPGKERELVAAITISDGRTYYADSVKGRFTISRDNAKNTVYLQMNSLKREVTAVYYCAAVQKYGYYWRHNDYWGQGTQVTVSS : low polyreactivity
QVQLVESGGGLVQAGGSLRLRCAASGSIFNFYAMGGYRQAPGKERELVATINWSGGRTYYADSVKGRFTISRDNATNTVYLQMNSLNTEDTAVYYCAASRYFRGDYWGQGTQGTVSS : high polyreactivity
QVQLVESGGGLVQAGGSLRLSCAASGIIFYEYVMGWYRQAPGKERELVAAISRSGGSTYYADSVKGRFTISRDNAKNTVYLQMNSLKPEDTAVYYCAVDAYRYWWTTYVSDFDYWGQGTQVTVSS : high polyreactivity

Origin of measurements: the nanobody polyreactivity screen of Harvey et al. (2022)
